System: STING pathway cytokine mIFN-β in mouse Raw264.7 cells
Procedure Details: ELISA of STING pathway cytokine mIFN-β expression in mouse Raw264.7 cells
Type: cell-based
Protocol Conditions: mIFN-β expression, 6 h, ELISA
pEC50: −log10 of the molar value.
Decision: pEC50 >= 6 yields T, all other cases yield F.

Consider the following illustrative entries.
{"Molecule": "COc1cc2sc(C(=O)N(C)CCC(=O)O)cc2cc1OCCCOc1cc2sc(C(=O)CCC(=O)O)cc2cc1OC", "Subject Of Test": "STING pathway cytokine mIFN-β in mouse Raw264.7 cells", "Answer Label": "F"}
{"Molecule": "COc1cc2sc(C(=O)CCC(=O)O)cc2cc1OCCCOc1cc2sc(C(=O)N(C)CCC(=O)O)cc2cc1OC", "Subject Of Test": "STING pathway cytokine mIFN-β in mouse Raw264.7 cells", "Answer Label": "F"}

Identify whether the reported pEC50 of the following molecule is 6 or greater: COc1cc2cc(C(=O)CCC(=O)O)sc2cc1OC [Control Compound 2, reference compound]
F

Form field: pEC50 at least 6? Entry: Nc1ncnc2c1ncn2[C@@H]1O[C@@H]2COP(=O)([S-])O[C@@H]3[C@H](O)[C@@H](COP([O-])(=S)O[C@H]2[C@H]1O)O[C@H]3n1cnc2c(N)ncnc21.[Na+].[Na+] (some centres unmarked) [Control Compound 1, ADU-S100, reference compound]
F

Tell me whether pEC50 is at least 6 here: COc1cc2sc(C(=O)CCC(=O)O)cc2cc1OCCCOc1cc2cc(C(=O)N(C)CCC(=O)O)sc2cc1OC
T

====

Overview of reported Emax across a group of molecules:
Test system: STING pathway cytokine mIFN-β in mouse Raw264.7 cells
Procedure Details: ELISA of STING pathway cytokine mIFN-β expression in mouse Raw264.7 cells
Type: cell-based
Protocol Conditions: highest expression of mIFN-β, 6 h, ELISA
Report as a plain number; the unit pg/mL is understood.

Sample records with Emax:
{"Molecule": "Nc1ncnc2c1ncn2[C@@H]1O[C@@H]2COP(=O)([S-])O[C@@H]3[C@H](O)[C@@H](COP([O-])(=S)O[C@H]2[C@H]1O)O[C@H]3n1cnc2c(N)ncnc21.[Na+].[Na+] (some centres unmarked) [Control Compound 1, ADU-S100, reference compound]", "Emax / pg/mL": 1248.94}
{"Molecule": "COc1cc2sc(C(=O)CCC(=O)O)cc2cc1OCCCOc1cc2cc(C(=O)N(C)CCC(=O)O)sc2cc1OC", "Emax / pg/mL": 1176.75}
{"Molecule": "COc1cc2cc(C(=O)CCC(=O)O)sc2cc1OC [Control Compound 2, reference compound]", "Emax / pg/mL": 1106.15}
{"Molecule": "COc1cc2sc(C(=O)N(C)CCC(=O)O)cc2cc1OCCCOc1cc2sc(C(=O)CCC(=O)O)cc2cc1OC", "Emax / pg/mL": 1082.21}

Continue with the molecule presented below.
Lab note: measured Emax of COc1cc2sc(C(=O)CCC(=O)O)cc2cc1OCCCOc1cc2sc(C(=O)N(C)CCC(=O)O)cc2cc1OC was 1012.51

====

# IC50 values compiled below
Subject Of Test: hSTING protein (Homo sapiens)
Sequence (Q86WV6 whole entry H232R): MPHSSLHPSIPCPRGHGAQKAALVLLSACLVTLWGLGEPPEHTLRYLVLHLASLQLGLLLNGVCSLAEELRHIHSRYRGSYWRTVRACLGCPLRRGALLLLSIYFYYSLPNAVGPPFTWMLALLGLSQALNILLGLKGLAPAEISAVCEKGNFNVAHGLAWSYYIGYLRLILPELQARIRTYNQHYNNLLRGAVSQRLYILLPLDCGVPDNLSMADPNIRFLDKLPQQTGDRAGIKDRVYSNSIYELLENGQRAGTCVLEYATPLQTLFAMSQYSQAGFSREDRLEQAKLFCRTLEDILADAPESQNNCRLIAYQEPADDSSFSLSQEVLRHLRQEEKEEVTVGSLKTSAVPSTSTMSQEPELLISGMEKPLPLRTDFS
Procedure Details: Human STING binding kit (HTRF) competitive binding assay
Protocol Conditions: competition with d2-STING-ligand for 6×His-hSTING, HTRF, 3 h at 25° C.
Value expressed in µM; do not type the unit.

Worked cases, IC50 given:
{"Compound": "COc1cc2sc(C(=O)CCC(=O)O)cc2cc1OCCCOc1cc2cc(C(=O)N(C)CCC(=O)O)sc2cc1OC", "Unit String": "µM", "Measured Value": 0.000139}
{"Compound": "COc1cc2sc(C(=O)N(C)CCC(=O)O)cc2cc1OCCCOc1cc2sc(C(=O)CCC(=O)O)cc2cc1OC", "Unit String": "µM", "Measured Value": 0.0322}
{"Compound": "COc1cc2sc(C(=O)CCC(=O)O)cc2cc1OCCCOc1cc2sc(C(=O)N(C)CCC(=O)O)cc2cc1OC", "Unit String": "µM", "Measured Value": 0.0091}

Attention now turns to another entry.
Memo: COc1cc2cc(C(=O)CCC(=O)O)sc2cc1OC [Control Compound 2, reference compound] , reported IC50: 3.78

The reported numbers originate from patent US12269816B2.
